Reference source for all entries: paper PMC8293163

- Target desc: T117-F MPER scaffold
- Run description: BLI
Measure: Kd (nM)

binder="10E8v4-P100fA Fab (Fab, V domains shown) VH: EVRLVESGGGLVKPGGSLRLSCSASGFDFDNAWMTWVRQPPGKGLEWVGRITGPGEGWSVDYAESVKGRFTISRDNTKNTLYLEMNNVRTEDTGYYFCARTGKYYDFWSGYAPGEEYFQDWGQGTLVIVSS VL: ASELTQDPAVSVALKQTVTITCRGDSLRSHYASWYQKKPGQAPVLLFYGKNNRPSGIPDRFSGSASGNRASLTITGAQAEDEADYYCSSRDKSGSRLSVFGGGTKLTVL" measure=Kd meas_value=103
